The origin of these recorded values is the supplement of paper PMC10724198.

# System: Saccharomyces cerevisiae
# EXPERIMENT: protein stability index of tFT-peptide fusion (C-terminal peptide) (PSI (0-1 scale)); higher = more stable (slower turnover)
# ASSAY CONDITIONS: genetic background: das1 deletion; temperature: 30 C
Respond with 1 for protein stability index values of 0.7 and above, -1 for values below.

The examples below pair each entry with its known result.
Record ARGRRRSKGFKV [RPL18A C-terminal 12 aa] ; criterion: protein stability index no lower than 0.7. Met?
1

Threshold query (protein stability index >= 0.7) on KEQEESEKDKEN [BFR1 C-terminal 12 aa]
1

// inclusive: protein stability index at least 0.7? input: YCIYQILILVKH [YCL065W C-terminal 12 aa]
-1

hey, is protein stability index for this one >= 0.7? RAVSGVELRIYV [POP7 C-terminal 12 aa]
-1

Hello, I need to know if KTSPTCHNMFDV [SDD4 C-terminal 12 aa] has measured protein stability index not below 0.7. Thanks!
1

New cases:
Hi team, for NFLNLLSPLPSV [TOM7 C-terminal 12 aa] , is the recorded protein stability index at or above 0.7?
1

Dear colleague, could you confirm whether ANEMADELSRYL [IRC6 C-terminal 12 aa] has protein stability index at or above 0.7?
1

Please check the record LKIKVHIYRMKR [YHL015W-A C-terminal 12 aa] and state if its protein stability index is at or above 0.7.
-1
